# target-desc: hNLRP3 LRR recombinant protein (Homo sapiens)
# Sequence (Q96P20 742-991 limits assumed): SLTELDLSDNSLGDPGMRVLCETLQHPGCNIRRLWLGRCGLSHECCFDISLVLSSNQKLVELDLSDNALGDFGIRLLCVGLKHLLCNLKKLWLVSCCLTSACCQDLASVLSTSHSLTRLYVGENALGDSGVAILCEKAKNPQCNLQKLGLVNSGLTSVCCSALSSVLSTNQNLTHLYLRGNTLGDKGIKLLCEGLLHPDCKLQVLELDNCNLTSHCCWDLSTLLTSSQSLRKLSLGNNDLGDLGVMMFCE
# experimental-protocol: Surface plasmon resonance
# Assay type: binding
# run-conditions: SPR, Biacore 8K, CM5 chip, 25°C
Recorded dissociation constant k d for the following compounds
Reply numerically in s⁻¹, unit not repeated.

Guide cases for dissociation constant k d, answers given:
Give a short answer stating reported dissociation constant k d for COP(=O)(OC)OC=C(Cl)Cl .
0.00489

Note dissociation constant k d for the compound shown: CCOP(=O)(OCC)Oc1ccc([N+](=O)[O-])cc1
0.00461

Hello, please tell me recorded dissociation constant k d for this one: COP(=O)(OC)OC(Br)C(Cl)(Cl)Br (stereo not shown)
0.206

--- query ---
Read the entry CNC(=O)CSP(=S)(OC)OC [dimethoate] and write its reported dissociation constant k d.
0.00529
